test system: HCT-116 cells; assay: Cancer cells viability by MTT assay; conditions: 500 ug/mL, 48 hrs, HCT-116
I'd appreciate it if you marked entries 1 (yes) when cancer cell viability (% of control) is lower than 30% and 0 (no) when it is not.

>  <compound>
OC(CNc1nnn[nH]1)COCCCCOCC(O)CNc1nnn[nH]1 (centres unmarked) [BG-(Atet)2]

>  <className>
1 (yes)

$$$$
>  <compound>
OC(CNc1ncn[nH]1)COCCCCOCC(O)CNc1ncn[nH]1 (centres unmarked) [BG-(ATri)2]

>  <className>
1 (yes)

$$$$
>  <compound>
OC(COCCCCOCC(O)Cn1ccnc1)Cn1ccnc1 (centres unmarked) [BG-(Imi)2]

>  <className>
1 (yes)

$$$$
>  <compound>
O=P(O)(O)OCC(O)COCCCCOCC(O)COP(=O)(O)O (centres unmarked) [BG-(H3PO4)2]

>  <className>
0 (no)

$$$$
>  <compound>
OC(COCCCCOCC(O)Cn1cncn1)Cn1cncn1 (centres unmarked) [BG-(Tri)2]

>  <className>
1 (yes)

$$$$

Recorded values, source patent US10918624B2.
